assay: Half-life in male C57BL/6 mouse at 20 mg/kg, ip measured after 24 hrs by LC-MS/MS analysis; format: ADME, organism-based; conditions: in vivo
Observed Property: half-life (h)
Supply the numeric figure in h, leaving out any unit text.

[Q] Item Cn1ccc(-c2cc(Cl)c(Cl)c3[nH]c4c(c23)CN(C(=O)CNC(=O)CCCC#Cc2cccc3c2CN(C2CCC(=O)NC2=O)C3=O)CC4)n1 (stereo unspecified) has what recorded half-life?
[A] 13.7

* * *

target: Protein cereblon/Cyclic GMP-AMP synthase (Homo sapiens, UniProt Q96SW2+Q8N884); experiment: PROTAC activity at CRBN/cGAS in human THP-1 cells assessed as induction of cGAS degradation at 10 uM preincubated with compound for 40 hrs followed by HT-DNA stimulation and measured after 8 hrs by Western blot analysis relative to control; assay type: cell-based; settings: time 48.0 hrs
Sequence (Q8N884 whole entry, looked up): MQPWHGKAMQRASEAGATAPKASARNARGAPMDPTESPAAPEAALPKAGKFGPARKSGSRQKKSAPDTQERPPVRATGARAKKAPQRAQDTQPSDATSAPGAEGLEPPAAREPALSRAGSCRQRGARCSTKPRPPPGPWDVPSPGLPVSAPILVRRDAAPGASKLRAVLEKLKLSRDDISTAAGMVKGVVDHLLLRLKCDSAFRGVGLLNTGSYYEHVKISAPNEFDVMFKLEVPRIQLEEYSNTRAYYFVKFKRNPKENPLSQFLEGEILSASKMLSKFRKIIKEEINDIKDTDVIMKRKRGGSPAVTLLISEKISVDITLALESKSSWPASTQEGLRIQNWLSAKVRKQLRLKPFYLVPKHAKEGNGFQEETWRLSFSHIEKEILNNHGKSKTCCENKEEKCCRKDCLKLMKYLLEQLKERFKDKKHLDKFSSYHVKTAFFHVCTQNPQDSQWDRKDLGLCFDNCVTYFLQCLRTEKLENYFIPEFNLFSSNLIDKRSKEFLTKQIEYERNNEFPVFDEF
Sequence (Q96SW2 whole entry, looked up): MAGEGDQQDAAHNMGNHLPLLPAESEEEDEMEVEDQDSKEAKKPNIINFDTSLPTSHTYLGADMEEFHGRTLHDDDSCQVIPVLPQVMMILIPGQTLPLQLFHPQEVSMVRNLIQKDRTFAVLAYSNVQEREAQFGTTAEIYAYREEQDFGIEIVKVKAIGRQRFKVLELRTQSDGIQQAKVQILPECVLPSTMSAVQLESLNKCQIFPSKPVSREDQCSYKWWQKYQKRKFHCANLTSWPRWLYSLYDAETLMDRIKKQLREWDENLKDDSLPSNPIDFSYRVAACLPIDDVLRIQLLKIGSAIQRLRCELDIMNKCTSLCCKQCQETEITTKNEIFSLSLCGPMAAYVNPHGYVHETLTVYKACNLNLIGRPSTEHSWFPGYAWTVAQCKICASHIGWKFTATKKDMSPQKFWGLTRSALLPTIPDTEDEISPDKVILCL
Could you please report measured Activity for the items listed next?
Supply the numeric figure in %, leaving out any unit text.

[Q] Item O=C1CCC(N2C(=O)c3cccc(NCCCCCC(=O)N4CCC(Cn5cc(-c6cc(Cl)c(Cl)c7[nH]c8c(c67)CN(C(=O)CO)CC8)cn5)CC4)c3C2=O)C(=O)N1 (stereo unspecified) has what recorded Activity?
[A] 57.7

[Q] Item Cn1ccc(-c2cc(Cl)c(Cl)c3[nH]c4c(c23)CN(C(=O)CNC(=O)COCCOCCOCCNc2cccc3c2C(=O)N(C2CCC(=O)NC2=O)C3=O)CC4)n1 (stereo unspecified) has what recorded Activity?
[A] 34.6

[Q] Item Cn1ccc(-c2cc(Cl)c(Cl)c3[nH]c4c(c23)CN(C(=O)CNC(=O)CCCC#Cc2ccc3c(c2)CN(C2CCC(=O)NC2=O)C3=O)CC4)n1 (stereo unspecified) has what recorded Activity?
[A] 25.6

[Q] Item Cn1ccc(-c2cc(Cl)c(Cl)c3[nH]c4c(c23)CN(C(=O)CNC(=O)CCCCC#Cc2ccc3c(c2)CN(C2CCC(=O)NC2=O)C3=O)CC4)n1 (stereo unspecified) has what recorded Activity?
[A] 21.9

[Q] Item Cn1ccc(-c2cc(Cl)c(Cl)c3[nH]c4c(c23)CN(C(=O)CNC(=O)CCCCCCCCCCCNc2cccc3c2C(=O)N(C2CCC(=O)NC2=O)C3=O)CC4)n1 (stereo unspecified) has what recorded Activity?
[A] 4.3

[Q] Item O=C1CCC(N2C(=O)c3cccc(NCCOCCOCCOCC(=O)N4CCC(Cn5cc(-c6cc(Cl)c(Cl)c7[nH]c8c(c67)CN(C(=O)CO)CC8)cn5)CC4)c3C2=O)C(=O)N1 (stereo unspecified) has what recorded Activity?
[A] 13.9

* * *

experiment: Cmax in male C57BL/6 mouse at 1 mg/kg, iv measured after 24 hrs by LC-MS/MS analysis; format: ADME, organism-based; details: in vivo
Observed Property: Cmax (ng/mL)
Supply the numeric figure in ng/mL, leaving out any unit text.

[Q] Item Cn1ccc(-c2cc(Cl)c(Cl)c3[nH]c4c(c23)CN(C(=O)CNC(=O)CCCC#Cc2cccc3c2CN(C2CCC(=O)NC2=O)C3=O)CC4)n1 (stereo unspecified) has what recorded Cmax?
[A] 1610

* * *

test: Inhibition of dsDNA-induced cGAS signaling pathway in mouse RAW-Lucia ISG cells preincubated with compound for 24 hrs followed by HT-DNA addition and measured after 24 hrs by QUANTI-Luc luciferase reagent based assay; format: cell-based
Could you please report measured IC50 for the items listed next?

[Q] Item Cn1ccc(-c2cc(Cl)c(Cl)c3[nH]c4c(c23)CN(C(=O)CNC(=O)CCCCNc2cccc3c2C(=O)N(C2CCC(=O)NC2=O)C3=O)CC4)n1 (stereo unspecified) has what recorded IC50?
[A] 16.1 µM

[Q] Item Cn1ccc(-c2cc(Cl)c(Cl)c3[nH]c4c(c23)CN(C(=O)CNC(=O)CCN2CCN(C(=O)COc3cccc5c3C(=O)N(C3CCC(=O)NC3=O)C5=O)CC2)CC4)n1 (stereo unspecified) has what recorded IC50?
[A] > 50 µM

[Q] Item Cn1ccc(-c2cc(Cl)c(Cl)c3[nH]c4c(c23)CN(C(=O)CCCCCCC#Cc2cccc3c2CN(C2CCC(=O)NC2=O)C3=O)CC4)n1 (stereo unspecified) has what recorded IC50?
[A] > 50 µM

[Q] Item Cn1ccc(-c2cc(Cl)c(Cl)c3[nH]c4c(c23)CN(C(=O)CNC(=O)CC2CCN(C(=O)COc3cccc5c3C(=O)N(C3CCC(=O)NC3=O)C5=O)CC2)CC4)n1 (stereo unspecified) has what recorded IC50?
[A] > 50 µM

[Q] Item O=C1CCC(N2C(=O)c3cccc(NCCCCCCCCC(=O)N4CCC(Cn5cc(-c6cc(Cl)c(Cl)c7[nH]c8c(c67)CN(C(=O)CO)CC8)cn5)CC4)c3C2=O)C(=O)N1 (stereo unspecified) has what recorded IC50?
[A] > 50 µM

[Q] Item O=C1CCC(N2C(=O)c3cccc(NCCOCCOCCOCCOCCOCCOCCOCCOCCC(=O)N4CCC(Cn5cc(-c6cc(Cl)c(Cl)c7[nH]c8c(c67)CN(C(=O)CO)CC8)cn5)CC4)c3C2=O)C(=O)N1 (stereo unspecified) has what recorded IC50?
[A] > 50 µM
